The reported numbers originate from PubChem BioAssay AID1159580.

experiment: chemical genetic growth profiling, strain panel (AID 1159580);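 further: tested at 20 µM; growth read once vehicle control cultures reached saturation at 30 °C; 1 = growth at the plate median or of vehicle wells; lower values mean less growth of the strain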; details: S. cerevisiae deletion strains, growth OD, locus YER110C, active compounds read low
In all, about 5,500 compounds went through this assay and about 2,000 (36%) were called active. Roughly 18% stayed inconclusive and do not appear here. The list shows a part of the results.
Answer each item with its documented normalized growth.

[[record]]
compound = "CC(=O)O[C@@H]1CC2C(C)(C)CCC[C@]2(C)C2CC[C@]3(C)C(=CC(=O)O[C@H]3c3ccoc3)[C@@]21C (stereo partly specified)"
result = "1.01 (inactive)"

[[record]]
compound = "C[C@]12CCC(=O)C=C1CCc1ccc(O)cc12"
result = "0.982 (inactive)"


Give normalized growth for all compounds that follow.
1. COc1cc(O)c2c(=O)cc(-c3ccc(OC)c(-c4c(O)cc(O)c5c(=O)cc(-c6ccc(O)cc6)oc45)c3)oc2c1
2. COc1ccc(-c2cc(=O)c3c(O)cc(O)cc3o2)cc1O
3. COc1cccc2c1CCC1=CC(=O)CC[C@@]12C
4. CC1(C)O[C@@H]2CC3C4C[C@H](F)C5=CC(=O)CC[C@]5(C)C4[C@@H](O)C[C@]3(C)[C@]2(C(=O)CO)O1 (stereo partly specified)

1: 0.983 (inactive); 2: 1 (inactive); 3: 0.983 (inactive); 4: 0.998 (inactive)
